These data points were gathered from PubChem BioAssay (NCI).

Consider the following molecules; for each one, report its GI50.
Tested on: LOX IMVI melanoma
experiment_description: NCI tumour cell line growth inhibition, 48 h

1. CCN1CCN(c2nc(C)cc(N(CCCNc3ccnc4cc(Cl)ccc34)Cc3ccco3)n2)CC1 : 1760 nM
2. COc1cc(C(=O)/C=C/c2c(-c3cccs3)nc3ccccn23)cc(OC)c1OC : 1870 nM
3. CCN1CCN(c2cc(C)nc(NCc3cc(Nc4ccnc5cc(Cl)ccc45)ccc3F)n2)CC1 : 1740 nM

Please give GI50 for each item listed below.
1. CCCCc1oc2ccccc2c1C(=O)c1cc(I)c(OCCN(CC)CC)c(I)c1
2. O=C1C(Nc2cccc(O)c2)=C(Sc2ccc(Cl)cc2)C(=O)N1Cc1ccccc1
3. Cc1sc2c(c1C)C(c1ccc(Cl)cc1)=N[C@@H](CC(=O)Nc1ccc(O)cc1)c1nnc(C)n1-2

Completion:
1. 1490 nM
2. 8700 nM
3. 109 nM

Prompt: What value of GI50 has been reported for the following molecule? O=C(Nn1c2c(sc1=NC1CC1)C(=O)c1ccccc1C2=O)c1cc2ccc1CCc1ccc(cc1)CC2
Completion: 966 nM
